Tested on: NQO1 specific enzyme activity in BEAS-2B cells
Test method notes: BEAS-2B NQO1 MTT assay
Format: cell-based
Run conditions: Homo sapiens, BEAS-2B, 48 h, BEAS-2B cells, 48 hours with compound, MTT readout; read-out: EC50 of NQO1 specific activity induction
pEC50: −log10 of the molar value. Where a name gives a salt, the structure may show the parent alone.
Measure name: pEC50

For record CC[C@@H]1CN(Cc2cc([C@@H](CC(=O)O)c3ccc4c(nnn4C)c3C)ccc2C)Cc2cccc(F)c2O1 [Example 60, Sodium salt] the listed pEC50 is 7.00 to 8.00

For record CC[C@@H]1CN(Cc2cc(C(CC(=O)O)c3ccc4c(nnn4C)c3C)ccc2C)Cc2ccc(C)cc2O1 (stereo partly shown) the listed pEC50 is 6.00 to 7.00

For record `CC[C@@H]1CN(Cc2cc([C@H](CC(=O)O)c3ccc4c(nnn4CC)c3F)ccc2C)Cc2cccc(F)c2O1` the listed pEC50 is 8.00 to 9.00

For record Cc1ccc(C(c2ccc3c(nnn3C)c2C)C(C)(C)C(=O)O)cc1Cn1ccnc1CC1CCOCC1 (stereo not shown) [Example 145, trifluoroacetic acid salt] the listed pEC50 is 6.00 to 7.00

For record Cc1ccc(C(c2ccc3c(nnn3C)c2C)C(C)(C)C(=O)O)cc1CN1Cc2cnccc2OC(C)(C)C1 (stereo not shown) the listed pEC50 is 8.00 to 9.00

***
For record Cc1ccc(C(CC(=O)O)c2ccc3c(nnn3C)c2C)cc1CN1CCc2cnc(C(C)C)nc2C1 (stereo not shown) the listed pEC50 is 5.00 to 6.00

For record Cc1ccc(C(c2ccc3c(nnn3C)c2C)C(C)(C)C(=O)O)cc1CN1Cc2cccc(F)c2OC(C)(C)C1 (stereo not shown) the listed pEC50 is 8.00 to 9.00

---

Test system: NQO1 specific enzyme activity in BEAS-2B cells
Test method notes: BEAS-2B NQO1 MTT assay
Format: cell-based
Run conditions: Homo sapiens, BEAS-2B, 48 h, BEAS-2B cells, 48 hours with compound, MTT readout; read-out: EC50 of NQO1 specific activity induction
Counter-ions that a name gives are not always drawn.
Measure name: EC50

Here is how some compounds turned out for EC50.
For record CC[C@@H]1CN(Cc2cc(C(CCc3cn(CC)nn3)CC(=O)O)ccc2C)Cc2cnccc2O1 (stereo partly shown) the listed EC50 is 100 to 1000 nM

For record Cc1ccc(C(CCc2cn(C)nn2)CC(=O)O)cc1Cn1ccnc1CC1CCCCC1 (stereo not shown) the listed EC50 is 100 to 1000 nM

For record `CC[C@@H]1CN(Cc2cc([C@@H](c3ccc4c(nnn4CC)c3F)[C@@H](C)C(=O)O)ccc2C)Cc2cccc(F)c2O1` the listed EC50 is 1 to 10 nM

Next compound, please.
For record CCC1CN(Cc2cc(C(CC(=O)O)c3cc(OC)c4c(nnn4C)c3C)ccc2C)Cc2ccccc2O1 (stereo not shown) [Example 70, Formic Acid Salt] the listed EC50 is 10 to 100 nM

---

Test system: NQO1 specific enzyme activity in BEAS-2B cells
Test method notes: BEAS-2B NQO1 MTT assay
Format: cell-based
Run conditions: Homo sapiens, BEAS-2B, 48 h, BEAS-2B cells, 48 hours with compound, MTT readout; read-out: EC50 of NQO1 specific activity induction
From the text: NAD(P)H:quinone oxidoreductase 1 (NQO1), also called DT diaphorase, is a homodimeric FAD-containing enzyme that catalyzes obligatory NAD(P)H-dependent two-electron reductions of quinones and protects cells against the toxic and neoplastic effects of free radicals and reactive oxygen species arising from one-electron reductions. […] On day one, frozen BEAS-2B cells (ATCC) are thawed in a water bath, counted, and re-suspended at a concentration of 250,000 cells/mL. […]
pEC50: −log10 of the molar value. Structures can show the parent of a compound that is named as a salt.
Listed here are molecules together with their documented pEC50.

Here is how some molecules turned out for pEC50.
For the molecule CC[C@@H]1CN(Cc2cc([C@@H](c3ccc4c(nnn4C)c3C)C(C)(C)C(=O)O)ccc2C)Cc2ncccc2O1 [Example 218, Trifluoroacetate] , the measured pEC50 on NQO1 specific enzyme activity in BEAS-2B cells was 8.00 to 9.00

For the molecule Cc1ccc(C(CC(=O)O)c2ccc3c(nnn3C)c2C)cc1CN1Cc2ccccc2OC(C)C1 (centres unmarked) [Example 3, trifluoroacetic Acid Salt] , the measured pEC50 on NQO1 specific enzyme activity in BEAS-2B cells was 5.00 to 6.00

For the molecule Cc1ccc(C(CC(=O)O)c2ccc3c(nnn3C)c2C)cc1CN(C)Cc1ccc(Br)cc1 (centres unmarked) , the measured pEC50 on NQO1 specific enzyme activity in BEAS-2B cells was 5.00 to 6.00

For the molecule Cc1ccc(C(CC(=O)O)c2ccc3c(nnn3C)c2C)cc1Cn1ccnc1CC1CCCC1 (centres unmarked) , the measured pEC50 on NQO1 specific enzyme activity in BEAS-2B cells was 6.00 to 7.00

For the molecule CC[C@@H]1CN(Cc2cc(C(CC(=O)O)c3ccc(F)cc3F)ccc2C)Cc2ccccc2O1 (some centres unmarked) [Example 117, Formic Acid Salt] , the measured pEC50 on NQO1 specific enzyme activity in BEAS-2B cells was 5.00 to 6.00

***
For the molecule CC[C@@H]1CN(Cc2cc(C(CCc3cn(CC)nn3)CC(=O)O)ccc2Cl)Cc2ncccc2O1 (some centres unmarked) , the measured pEC50 on NQO1 specific enzyme activity in BEAS-2B cells was 6.00 to 7.00

For the molecule Cc1ccc(C(CC(=O)O)c2ccc3c(nnn3C)c2C)cc1CN1Cc2ccc(Br)cc2O[C@@H](C)C1 (some centres unmarked) [Example 93, Formic Acid Salt] , the measured pEC50 on NQO1 specific enzyme activity in BEAS-2B cells was 8.00 to 9.00

---

Test system: NQO1 specific enzyme activity in BEAS-2B cells
Test method notes: BEAS-2B NQO1 MTT assay
Assay type: cell-based
Run conditions: Homo sapiens, BEAS-2B, 48 h, BEAS-2B cells, 48 hours with compound, MTT readout; read-out: EC50 of NQO1 specific activity induction
Where a name gives a salt, the structure may show the parent alone.
Listed here are compounds together with their documented EC50.

Here is how some compounds turned out for EC50.
For the compound COCC1CN(Cc2cc(C(CC(=O)O)c3ccc4c(nnn4C)c3C)ccc2C)Cc2ccccc2O1 (stereo not shown) [Example 74, formic acid salt] , the measured EC50 on NQO1 specific enzyme activity in BEAS-2B cells was 100 to 1000 nM

For the compound CC[C@@H]1CN(Cc2cc(C(CC(=O)O)c3ccc4c(nnn4C)c3C)ccc2C)Cc2cc(Cl)ccc2O1 (stereo partly shown) , the measured EC50 on NQO1 specific enzyme activity in BEAS-2B cells was 1000 to 10000 nM

For the compound CC[C@@H]1CN(Cc2cc([C@@H](CC(=O)O)c3ccc4c(nnn4CC)c3Cl)ccc2C)Cc2ccccc2O1 [Example 67, Sodium Salt] , the measured EC50 on NQO1 specific enzyme activity in BEAS-2B cells was 10 to 100 nM

***
For the compound CCC1CCN(Cc2nccn2Cc2cc([C@H](c3ccc4c(nnn4C)c3C)C(C)C(=O)O)ccc2C)CC1 (stereo partly shown) [Example 152, Trifluoroacetic Acid Salt] , the measured EC50 on NQO1 specific enzyme activity in BEAS-2B cells was 100 to 1000 nM

For the compound CC[C@@H]1CN(Cc2cc(C(CC(=O)O)c3ccc4c(nnn4C)c3C)ccc2C)Cc2ccncc2O1 (stereo partly shown) , the measured EC50 on NQO1 specific enzyme activity in BEAS-2B cells was 10 to 100 nM

For the compound `Cc1ccc([C@@H](CC(=O)O)c2ccc3c(nnn3C)c2C)cc1CN1Cc2ccc(F)cc2OC(C)(C)C1` , the measured EC50 on NQO1 specific enzyme activity in BEAS-2B cells was 10 to 100 nM

For the compound Cc1c(C(CC(=O)O)c2ccc(Cl)c(CN3CCCC(n4cccn4)C3)c2)ccc2c1nnn2C (stereo not shown) [Example 160, Formic Acid Salt] , the measured EC50 on NQO1 specific enzyme activity in BEAS-2B cells was 1000 to 10000 nM

---

Listed here are compounds together with their documented EC50.
Tested on: NQO1 specific enzyme activity in BEAS-2B cells
Test method notes: BEAS-2B NQO1 MTT assay
Assay type: cell-based
Run conditions: Homo sapiens, BEAS-2B, 48 h, BEAS-2B cells, 48 hours with compound, MTT readout; read-out: EC50 of NQO1 specific activity induction
Excerpt: NAD(P)H:quinone oxidoreductase 1 (NQO1), also called DT diaphorase, is a homodimeric FAD-containing enzyme that catalyzes obligatory NAD(P)H-dependent two-electron reductions of quinones and protects cells against the toxic and neoplastic effects of free radicals and reactive oxygen species arising from one-electron reductions. […] On day one, frozen BEAS-2B cells (ATCC) are thawed in a water bath, counted, and re-suspended at a concentration of 250,000 cells/mL. […]
Counter-ions that a name gives are not always drawn.

Here is how some compounds turned out for EC50.
For record `Cc1ccc([C@@H](c2ccc3c(nnn3C)c2C)C(C)(C)C(=O)O)cc1Cn1ccnc1CN1CCCCC1` the listed EC50 is < 1 nM

For record Cc1ccc(C(CC(=O)O)c2ccc3c(nnn3C)c2C)cc1CN1Cc2ccccc2OC(C)(C)C1 (stereo not shown) the listed EC50 is 10 to 100 nM

For record Cc1ccc(C(CC(=O)O)c2ccc3c(nnn3C)c2C)cc1CN1CCOc2ccccc2C1 (stereo not shown) [Example 1, Trifluoroacetic Acid Salt] the listed EC50 is 1000 to 10000 nM

For record Cc1ccc(C(CC(=O)O)c2ccc3c(nnn3C)c2C)cc1Cc1cnnn1CC1CCCCC1 (stereo not shown) the listed EC50 is 1000 to 10000 nM

For record Cc1ccc(C(CC(=O)O)c2ccc3c(nnn3C)c2C)cc1CN1Cc2ccccc2OC2(CC2)C1 (stereo not shown) the listed EC50 is 100 to 1000 nM

For record CCC1Cc2ccc(F)cc2CN(Cc2cc(C(CC(=O)O)c3ccc4c(nnn4C)c3C)ccc2C)C1 (stereo not shown) the listed EC50 is 10 to 100 nM

Next compound, please.
For record CCc1nc(C2CCCCN2Cc2cc(C(CC(=O)O)c3ccc4c(nnn4C)c3C)ccc2C)no1 (stereo not shown) the listed EC50 is 100 to 1000 nM

Reference for the values: patent US10604509B2
